Molecular target: UniProtKB P02768
Experiment: Protein binding affinity for human serum albumin was measured
Readout label: Kd (µM)
# number only, unit µM dropped from output

Q: Bench note: what Kd did "CC(C)c1csc(/C=C/c2ccn3c(=O)c(-c4nnn[nH]4)cnc3c2)n1" show?
Ans: 22

Q: Query: Kd; subject: "CC(C)c1csc(CCc2ccn3c(=O)c(-c4nnn[nH]4)cnc3c2)n1"
Ans: 327

Q: Requested field: Kd. Item: "CC(C)c1csc(/C=C/c2cccc(NC(=O)Cc3ccccc3C(=O)O)c2)n1"
Ans: 0.28

// moving on: another record for Kd
Q: Suppose we examine the molecule "CC(C)c1csc(COc2ccn3c(=O)c(-c4nnn[nH]4)cnc3c2)n1" ; what Kd value has been reported?
Ans: 66.4

---

Biological target: Albumin (Homo sapiens, UniProt P02768)
Sequence (P02768 whole entry): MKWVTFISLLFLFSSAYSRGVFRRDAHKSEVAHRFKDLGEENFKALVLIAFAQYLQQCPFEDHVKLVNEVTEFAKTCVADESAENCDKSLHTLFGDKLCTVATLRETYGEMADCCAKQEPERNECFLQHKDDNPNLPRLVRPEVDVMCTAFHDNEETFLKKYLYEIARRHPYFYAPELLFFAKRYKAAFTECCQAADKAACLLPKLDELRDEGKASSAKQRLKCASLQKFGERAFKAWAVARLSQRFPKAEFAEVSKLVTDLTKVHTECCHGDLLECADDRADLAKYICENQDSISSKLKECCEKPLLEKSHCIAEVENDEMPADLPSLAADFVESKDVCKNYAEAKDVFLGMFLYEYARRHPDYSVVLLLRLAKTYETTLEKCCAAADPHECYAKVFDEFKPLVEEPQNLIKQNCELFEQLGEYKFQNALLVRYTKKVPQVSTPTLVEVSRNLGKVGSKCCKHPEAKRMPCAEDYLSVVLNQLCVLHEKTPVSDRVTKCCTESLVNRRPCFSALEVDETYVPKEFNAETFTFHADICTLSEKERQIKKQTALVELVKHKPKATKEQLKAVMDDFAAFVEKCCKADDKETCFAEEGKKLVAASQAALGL
Assay: Protein binding affinity for human serum albumin was measured
Overview of reported Binding across a group of compounds:
Numbers only; they are read as %.

Q: Recorded Binding for "CC(C)c1csc(/C=C/c2ccn3c(=O)c(-c4nnn[nH]4)cnc3c2)n1" , please?
Ans: 90.8

***
Q: Recorded Binding of "CC(C)c1csc(CCc2ccn3c(=O)c(-c4nnn[nH]4)cnc3c2)n1" , please.
Ans: 81.5

Q: Give its Binding value. Item: "CC(C)c1csc(COc2cc3c(cc2F)c(=O)c(C(=O)O)cn3C2CC2)n1"
Ans: 90.5

Q: Which Binding reading was recorded for the compound "CC(C)c1csc(COc2ccn3c(=O)c(-c4nnn[nH]4)cnc3c2)n1" ?
Ans: 88.4
